- experimental-system: OATP1B3 (Homo sapiens, UniProt Q9NPD5)
- Sequence (Q9NPD5 whole entry): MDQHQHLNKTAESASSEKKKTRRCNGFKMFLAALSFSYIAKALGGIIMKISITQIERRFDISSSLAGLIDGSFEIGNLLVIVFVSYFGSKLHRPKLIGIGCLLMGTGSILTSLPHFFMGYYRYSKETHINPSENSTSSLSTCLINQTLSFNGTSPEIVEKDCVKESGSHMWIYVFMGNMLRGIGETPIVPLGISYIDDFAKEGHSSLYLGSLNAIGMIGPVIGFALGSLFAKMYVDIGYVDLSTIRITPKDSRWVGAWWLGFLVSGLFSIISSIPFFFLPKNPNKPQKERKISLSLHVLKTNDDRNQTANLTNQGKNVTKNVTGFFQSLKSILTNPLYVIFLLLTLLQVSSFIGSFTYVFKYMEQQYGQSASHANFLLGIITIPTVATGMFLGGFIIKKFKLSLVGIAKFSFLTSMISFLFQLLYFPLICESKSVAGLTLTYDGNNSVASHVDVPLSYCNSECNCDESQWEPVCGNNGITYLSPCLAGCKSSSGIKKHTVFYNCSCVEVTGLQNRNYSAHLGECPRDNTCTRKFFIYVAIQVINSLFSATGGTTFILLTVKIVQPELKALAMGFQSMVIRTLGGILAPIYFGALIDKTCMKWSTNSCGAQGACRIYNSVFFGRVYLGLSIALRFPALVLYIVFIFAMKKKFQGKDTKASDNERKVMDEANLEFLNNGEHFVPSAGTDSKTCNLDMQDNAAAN
- assay-explanation: Uptake into stable transfected OATP1B3 HEK 293 cells
- Format: cell-based
- condition-info: 40 min incubation, relative to RC1 (Gd-EOB-DTPA)
Catalogue of compounds with associated Uptake into OATP1B3-HEK 293 cells
reported-endpoint: Uptake into OATP1B3-HEK 293 cells

compound	reported-endpoint	val
CCOCCOCCOc1ccc(C[C@@H](C(=O)O)N2CCN(CC(=O)[O-])CCN(CC(=O)[O-])CCN(CC(=O)[O-])CC2)cc1.[Gd+3]	Uptake into OATP1B3-HEK 293 cells	18 % of RC1
CCOCCOCCOc1ccc(CC(C(=O)O)N2CCN(CC(=O)[O-])CCN(C(CO)C(=O)[O-])CCN(CC(=O)[O-])CC2)cc1.[Gd+3] (stereo not drawn)	Uptake into OATP1B3-HEK 293 cells	47 % of RC1
CCOCCOCCOCCOc1ccc(CC(C(=O)O)N2CCN(CC(=O)[O-])CCN(C(COC)C(=O)[O-])CCN(CC(=O)[O-])CC2)cc1.[Gd+3] (stereo not drawn)	Uptake into OATP1B3-HEK 293 cells	31 % of RC1
O=C([O-])CN1CCN(CC(=O)[O-])CCN(C(Cc2ccc(OCC(F)(F)C(F)F)cc2)C(=O)O)CCN(CC(=O)[O-])CC1.[Gd+3] (stereo not drawn)	Uptake into OATP1B3-HEK 293 cells	43 % of RC1
CCOCCOCCOc1ccc(C[C@H](C(=O)O)N2CCN(CC(=O)[O-])CCN(CC(=O)[O-])CCN(CC(=O)[O-])CC2)cc1.[Gd+3]	Uptake into OATP1B3-HEK 293 cells	58 % of RC1
CCCCOc1cccc(CCC[C@@H](C(=O)O)N2CCN([C@@H](CO)C(=O)[O-])CCN([C@@H](CO)C(=O)[O-])CCN([C@@H](CO)C(=O)[O-])CC2)c1.[Gd+3]	Uptake into OATP1B3-HEK 293 cells	140 % of RC1
CCOCCOCCOc1ccc(CC(C(=O)O)N2CCN(C(CO)C(=O)[O-])CCN(C(CO)C(=O)[O-])CCN(C(CO)C(=O)[O-])CC2)cc1.[Gd+3] (stereo not drawn)	Uptake into OATP1B3-HEK 293 cells	46 % of RC1
CCCOc1ccc(CCC(C(=O)O)N2CCN(CC(=O)[O-])CCN(CC(=O)[O-])CCN(CC(=O)[O-])CC2)cc1.[Gd+3] (stereo not drawn)	Uptake into OATP1B3-HEK 293 cells	17 % of RC1
CCCC(C(=O)[O-])N1CCN(CC(=O)[O-])CCN(C(Cc2ccc(OCC)cc2)C(=O)O)CCN(CC(=O)[O-])CC1.[Gd+3] (stereo not drawn) [Example 30]	Uptake into OATP1B3-HEK 293 cells	62 % of RC1
O=C([O-])CN(CCN(CC(=O)[O-])CC(=O)[O-])CCN(CC(=O)[O-])C(COCc1ccccc1)C(=O)[O-].[Gd+3].[H+].[H+] (stereo not drawn) [RC2, gadobenic acid, reference compound]	Uptake into OATP1B3-HEK 293 cells	4 % of RC1
CCOCCOCCOc1cc(CC(C(=O)O)N2CCN(CC(=O)[O-])CCN(CC(=O)[O-])CCN(CC(=O)[O-])CC2)cc(OCCOCCOCC)c1.[Gd+3] (stereo not drawn)	Uptake into OATP1B3-HEK 293 cells	26 % of RC1
CCOc1ccc(CCCC[C@@H](C(=O)O)N2CCN(CC(=O)[O-])CCN(CC(=O)[O-])CCN(CC(=O)[O-])CC2)cc1.[Gd+3]	Uptake into OATP1B3-HEK 293 cells	24 % of RC1
